Biological target: Toll-like receptor 9 (Homo sapiens)
Sequence (Q9NR96 whole entry): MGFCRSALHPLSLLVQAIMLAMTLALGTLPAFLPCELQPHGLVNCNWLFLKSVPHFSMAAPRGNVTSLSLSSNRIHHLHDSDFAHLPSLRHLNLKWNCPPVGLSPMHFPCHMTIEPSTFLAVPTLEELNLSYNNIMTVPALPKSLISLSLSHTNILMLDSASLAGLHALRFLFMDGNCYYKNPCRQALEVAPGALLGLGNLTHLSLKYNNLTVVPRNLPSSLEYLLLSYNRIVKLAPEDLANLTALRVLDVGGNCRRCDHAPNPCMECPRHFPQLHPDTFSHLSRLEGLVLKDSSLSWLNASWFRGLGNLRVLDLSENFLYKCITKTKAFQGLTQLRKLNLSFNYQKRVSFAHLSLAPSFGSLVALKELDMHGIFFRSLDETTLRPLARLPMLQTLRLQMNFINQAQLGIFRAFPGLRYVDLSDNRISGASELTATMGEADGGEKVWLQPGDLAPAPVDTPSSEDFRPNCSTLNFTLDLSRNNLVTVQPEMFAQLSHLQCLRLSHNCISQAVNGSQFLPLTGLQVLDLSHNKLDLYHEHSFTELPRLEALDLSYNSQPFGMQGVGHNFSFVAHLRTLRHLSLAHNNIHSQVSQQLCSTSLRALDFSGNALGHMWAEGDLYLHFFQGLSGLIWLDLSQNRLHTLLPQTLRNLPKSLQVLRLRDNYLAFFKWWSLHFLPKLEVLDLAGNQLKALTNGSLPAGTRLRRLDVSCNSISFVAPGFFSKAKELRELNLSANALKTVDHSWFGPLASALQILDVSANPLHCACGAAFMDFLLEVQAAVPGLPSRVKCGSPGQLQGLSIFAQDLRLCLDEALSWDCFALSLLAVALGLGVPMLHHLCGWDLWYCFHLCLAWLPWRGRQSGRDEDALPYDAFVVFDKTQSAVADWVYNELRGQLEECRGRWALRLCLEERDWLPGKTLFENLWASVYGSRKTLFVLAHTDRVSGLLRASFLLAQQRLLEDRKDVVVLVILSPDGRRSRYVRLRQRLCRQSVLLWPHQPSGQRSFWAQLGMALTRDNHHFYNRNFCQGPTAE
Assay: Antagonist activity at TLR9 in human PBMC cells assessed as reduction in IFN alpha measured after 20 hrs by AlphaLISA assay
Format: cell-based
compounds and their reported IC50
Numeric answer only, unit µM assumed.

Here's what some known entries look like.
Cc1cc(N2CCc3c(c(C)nn3CC34CCC(N5CCOCC5)(CC3)CC4)C2)c2cnn(C)c2n1 :: 2.1
Cc1cc(N2CCc3c(c(C)nn3CC34CCC(NC5CCC5)(CC3)CC4)C2)c2cnn(C)c2n1 :: 0.55

Now consider a different compound.
stdin: Given Cc1cc(N2CCc3c(c(C)nn3CC34CCC(NC(=O)[C@@H]5CNCCO5)(CC3)CC4)C2)c2cnn(C)c2n1 , respond with its IC50.
stdout: 0.19
